Source: PubChem BioAssay (NCATS)

- measurement-description: Quantitative High-Throughput drug screen in 47 multiple myeloma cell lines against the NCATS MIPE library collection: ARD_JJKsccE7 cell viability assay (AID 1918929)
- measurement-conditions: ARD myeloma cell line viability, CellTiter-Glo, 48 h; series mostly up to 45.8 µM
- Excerpt: PI: Beverly A. Mock Ph.D. Laboratory of Cancer Biology and Genetics, Center for Cancer Research, National Cancer Institute, National Institute of Health, Bethesda, Maryland […] 5; Detector; 425V; Luminescence; Viewlux PerkinElmer. […] 1. […] Briefly, the corresponding myeloma cell lines were screened in 1,536-well plates with 500 cells, 5-uL per well for inhibition of cell viability (assessed by measuring ATP levels with CellTiterGlo). […]
Results filed as inconclusive are left out. Calls of active or inactive are those of the source. Calls follow the shape of the dose curve; as a rule, active = well fitted cell-killing curve with a large enough effect; inconclusive = small, poorly fitted or top-dose-only effect, or effect the other way; inactive = no such curve, though single readings can be large or run the other way.
// one of Yes = active, No = inactive, no free text

// below: answered compounds
CC(=O)SCC(Cc1ccccc1)C(=O)NCC(=O)OCc1ccccc1 (centres undefined); Yes
COc1ccc(C=Cc2cc(OC)c(OC)c(OC)c2)cc1NC(=O)[C@H](N)CO; Yes
Cn1cc(CNCC2CCN(c3ncc(C(=O)NO)cn3)CC2)c2ccccc21; Yes
COc1cc2c(cc1OC)[C@@H]1C(=O)c3ccc4c(c3O[C@@H]1CO2)C=CC(C)(C)O4; Yes
CC(C=CC=C(C)C=CC1=C(C)CCCC1(C)C)=CC=CC=C(C)C=CC=C(C)C=CC1=C(C)CCCC1(C)C; Yes

Could you please tell me the result logged for CCNC(=O)c1cc2c(-c3cc(OCCN4CCCC4)c(Cl)cc3Cl)nc(N)nc2s1 in this assay?
Yes

Another compound: CN[C@@H]1C[C@H]2O[C@@](C)([C@H]1OC)n1c3ccccc3c3c4c(c5c6ccccc6n2c5c31)C(=O)N[C@H]4O
Yes

Input COc1ccc2cc([S+]([O-])Cc3ncc(C)c(OC)c3C)nc2c1
No

Now give it for CC(=O)O[C@H]1C[C@@H]2CC[C@H]3[C@H]4C[C@H]([N+]5(C)CCCCC5)[C@@H](OC(C)=O)[C@@]4(C)CC[C@@H]3[C@@]2(C)C[C@H]1[N+]1(C)CCCCC1 too.
No

---

- measurement-description: Quantitative High-Throughput drug screen in 47 multiple myeloma cell lines against the NCATS MIPE library collection: MM1S_ATCC cell viability assay (AID 1918980); also: nearly all actives have a fitted effect of over 45% in size
- measurement-conditions: MM1S myeloma viability, CellTiter-Glo ATP luminescence, 48 h; series mostly up to 45.8 µM
Inconclusive results are not listed. The source made the active and inactive calls. Calls follow the shape of the dose curve; as a rule, active = well fitted cell-killing curve with a large enough effect; inconclusive = small, poorly fitted or top-dose-only effect, or effect the other way; inactive = no such curve, though single readings can be large or run the other way.
Please state which outcome applies, choosing from active, inactive

Before answering, review these 3 worked examples.
Cc1noc(-c2ccc(CSCCC(=O)O)cc2)c1NC(=O)OC(C)c1ccccc1Cl (centres undefined); inactive
C[C@@H](Oc1ccc2[nH]nc(C=Cc3cnn(CCO)c3)c2c1)c1c(Cl)cncc1Cl; active
CC(=O)O[C@@]12CO[C@H]1C[C@H](O)[C@@]1(C)C(=O)[C@H](O)C3=C(C)[C@@H](OC(=O)C(O)[C@@H](NC(=O)OC(C)(C)C)c4ccccc4)C[C@@](O)([C@@H](OC(=O)c4ccccc4)[C@@H]21)C3(C)C (some centres undefined); inactive

Identify the outcome logged in this assay for the molecule shown: NC(=O)c1ncn([C@@H]2O[C@H](CO)[C@@H](O)[C@@H]2O)c1O
inactive
